Cited source: patent US4201784A

assay: Biological availability, blood and liver of rats; assay type: in vivo; conditions: rat, blood, ip; intraperitoneal 100 mg/kg, 30 minutes; read-out: maximum level in blood
property-measured: Cmax at 0.5 h

> print(dat)
                                   compound  value.observed
1  CCN(CC)CCCC(C)NC(=O)c1cc(C=Cc2ccc([N+](=O)[O-])o2)nc2ccccc12 (stereo not shown)     23000 ng/mL

====

test: LD50 / toxicity, mice with 7-days Ehrlich ascitic tumor; assay type: in vivo; conditions: mouse, in vivo, ip, intraperitoneal, single injection, female
property-measured: LD50 (mg/kg)

> print(dat)
                                   compound  unit.spec  value.observed
1  CCN(CC)CCCC(C)NC(=O)c1cc(C=Cc2ccc([N+](=O)[O-])o2)nc2ccccc12 (stereo not shown)      mg/kg              99
